tested_system: Nitric oxide sythases; iNOS & nNOS (Homo sapiens) (UniProt P29475+P35228)
Sequence (P29475 whole entry, looked up): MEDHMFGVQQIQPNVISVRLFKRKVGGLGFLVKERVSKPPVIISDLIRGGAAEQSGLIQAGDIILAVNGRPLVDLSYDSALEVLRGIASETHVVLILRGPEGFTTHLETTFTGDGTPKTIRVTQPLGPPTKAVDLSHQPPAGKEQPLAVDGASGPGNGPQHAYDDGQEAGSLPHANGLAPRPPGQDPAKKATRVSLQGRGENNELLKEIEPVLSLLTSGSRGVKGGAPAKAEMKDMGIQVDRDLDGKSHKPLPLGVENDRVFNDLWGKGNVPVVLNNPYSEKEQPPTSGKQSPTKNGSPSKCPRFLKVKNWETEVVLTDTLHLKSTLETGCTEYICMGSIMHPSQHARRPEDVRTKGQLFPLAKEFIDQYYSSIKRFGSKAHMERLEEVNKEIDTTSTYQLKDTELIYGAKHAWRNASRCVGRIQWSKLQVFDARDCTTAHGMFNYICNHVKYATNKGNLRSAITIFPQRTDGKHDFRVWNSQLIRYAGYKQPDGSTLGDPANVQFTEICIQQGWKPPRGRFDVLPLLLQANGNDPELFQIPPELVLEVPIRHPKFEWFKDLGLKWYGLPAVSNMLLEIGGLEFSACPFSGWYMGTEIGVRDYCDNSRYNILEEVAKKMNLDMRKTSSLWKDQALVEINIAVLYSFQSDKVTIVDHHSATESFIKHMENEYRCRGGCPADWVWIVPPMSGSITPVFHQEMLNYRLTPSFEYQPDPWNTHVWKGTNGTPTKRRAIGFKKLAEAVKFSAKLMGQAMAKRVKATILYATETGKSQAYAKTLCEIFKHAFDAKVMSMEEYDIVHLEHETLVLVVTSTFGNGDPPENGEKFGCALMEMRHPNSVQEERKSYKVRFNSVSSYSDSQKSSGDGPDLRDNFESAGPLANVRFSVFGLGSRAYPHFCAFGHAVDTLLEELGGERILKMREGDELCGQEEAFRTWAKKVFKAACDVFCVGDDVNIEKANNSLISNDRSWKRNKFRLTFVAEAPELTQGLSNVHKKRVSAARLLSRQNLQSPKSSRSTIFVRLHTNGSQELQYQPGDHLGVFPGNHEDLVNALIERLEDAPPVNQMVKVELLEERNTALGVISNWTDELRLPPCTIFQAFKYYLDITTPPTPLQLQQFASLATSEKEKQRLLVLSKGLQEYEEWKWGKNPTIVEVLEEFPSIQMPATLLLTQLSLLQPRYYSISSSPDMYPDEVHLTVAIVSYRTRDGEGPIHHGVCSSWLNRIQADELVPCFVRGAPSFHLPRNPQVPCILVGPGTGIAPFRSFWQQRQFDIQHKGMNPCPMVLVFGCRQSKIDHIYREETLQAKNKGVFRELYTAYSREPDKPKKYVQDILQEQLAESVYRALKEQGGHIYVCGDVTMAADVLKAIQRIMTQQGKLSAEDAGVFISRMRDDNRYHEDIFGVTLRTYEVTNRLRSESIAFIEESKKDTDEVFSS
Sequence (P35228 whole entry, looked up): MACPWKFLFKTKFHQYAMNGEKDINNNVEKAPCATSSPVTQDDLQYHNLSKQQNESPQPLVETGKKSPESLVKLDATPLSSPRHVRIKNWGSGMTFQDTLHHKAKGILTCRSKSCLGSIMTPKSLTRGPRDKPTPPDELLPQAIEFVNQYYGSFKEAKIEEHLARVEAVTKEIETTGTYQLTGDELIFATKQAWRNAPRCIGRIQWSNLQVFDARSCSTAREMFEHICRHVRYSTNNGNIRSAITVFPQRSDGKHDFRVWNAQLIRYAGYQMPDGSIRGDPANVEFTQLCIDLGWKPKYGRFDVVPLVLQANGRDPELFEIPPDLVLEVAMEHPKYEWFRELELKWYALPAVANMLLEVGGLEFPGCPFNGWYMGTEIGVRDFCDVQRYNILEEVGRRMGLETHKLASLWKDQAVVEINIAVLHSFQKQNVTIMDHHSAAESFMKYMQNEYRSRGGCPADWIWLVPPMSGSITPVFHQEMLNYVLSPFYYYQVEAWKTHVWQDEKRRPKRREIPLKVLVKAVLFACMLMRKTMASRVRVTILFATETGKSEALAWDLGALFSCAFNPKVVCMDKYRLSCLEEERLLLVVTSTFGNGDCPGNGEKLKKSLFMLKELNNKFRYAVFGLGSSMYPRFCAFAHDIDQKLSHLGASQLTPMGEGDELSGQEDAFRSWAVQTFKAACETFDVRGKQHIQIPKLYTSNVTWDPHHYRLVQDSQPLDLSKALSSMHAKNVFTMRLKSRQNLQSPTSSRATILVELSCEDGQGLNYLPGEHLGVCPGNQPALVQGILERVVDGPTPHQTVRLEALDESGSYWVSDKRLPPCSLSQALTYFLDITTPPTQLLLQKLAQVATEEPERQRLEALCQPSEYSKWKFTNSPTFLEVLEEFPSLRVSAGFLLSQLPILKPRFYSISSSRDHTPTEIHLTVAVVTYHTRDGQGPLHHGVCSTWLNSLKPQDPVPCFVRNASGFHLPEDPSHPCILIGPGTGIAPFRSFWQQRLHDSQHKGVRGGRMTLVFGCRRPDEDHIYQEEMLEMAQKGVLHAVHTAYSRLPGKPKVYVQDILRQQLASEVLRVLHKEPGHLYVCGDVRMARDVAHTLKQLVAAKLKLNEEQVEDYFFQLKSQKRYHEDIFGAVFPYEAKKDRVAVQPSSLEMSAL
assay_notes: Selectivity for nNOS and iNOS, ratio of Ki
Assay type: protein assay
Where a SMILES comes first, the peptide text is derived from it. [ ]: non-standard residue; d: D form. The star is where a group is joined. dArg(NO2) = N=C(NCCC[C@@H](N)C(=O)O)N[N+](=O)[O-]; Arg(NO2) = N=C(NCCC[C@H](N)C(=O)O)N[N+](=O)[O-]; OBn = c1ccc(CO*)cc1
Classes are defined on Selectivity with ranges b0: < 0.6; b1: ≥ 0.6 and < 40; b2: ≥ 40

Category lookup for the compound COC(=O)[C@@H](CCC/N=C(\N)N[N+](=O)[O-])NC(=O)[C@@H](N)Cc1ccccc1
b2

Next record, please: COC(=O)[C@H](CCC/N=C(\N)N[N+](=O)[O-])NC(=O)[C@@H](N)Cc1ccccc1
b0

Next record, please: N/C(=N\CCC[C@H](N)C(=O)N[C@@H](Cc1ccccc1)C(=O)OCc1ccccc1)N[N+](=O)[O-]
b0

Next record, please: N/C(=N\CCC[C@H](NC(=O)[C@@H](N)Cc1ccccc1)C(=O)O)N[N+](=O)[O-] (H-Phe-[Arg(NO2)]-OH)
b1

Next record, please: COC(=O)[C@@H](Cc1ccccc1)NC(=O)[C@@H](N)CCC/N=C(\N)N[N+](=O)[O-]
b1

Next record, please: N/C(=N\CCC[C@@H](NC(=O)[C@H](N)Cc1ccccc1)C(=O)O)N[N+](=O)[O-] (H-[dF]-[dArg(NO2)]-OH)
b2

Next record, please: N/C(=N\CCC[C@H](NC(=O)[C@@H](N)Cc1ccccc1)C(=O)OCc1ccccc1)N[N+](=O)[O-] (H-Phe-[Arg(NO2)]-OBn)
b0

Next record, please: COC(=O)[C@@H](Cc1ccccc1)NC(=O)[C@H](N)CCC/N=C(\N)N[N+](=O)[O-]
b2

Next record, please: N/C(=N\CCC[C@H](N)C(=O)N[C@@H](Cc1ccccc1)C(=O)O)N[N+](=O)[O-]
b1

###

assay_notes: Selectivity for iNOS and eNOS binding, ratio of Ki
Where a SMILES comes first, the peptide text is derived from it. [ ]: non-standard residue; d: D form. The star is where a group is joined. dArg(NO2) = N=C(NCCC[C@@H](N)C(=O)O)N[N+](=O)[O-]; Arg(NO2) = N=C(NCCC[C@H](N)C(=O)O)N[N+](=O)[O-]; OBn = c1ccc(CO*)cc1
Selectivity strictly under 0.06 means MET; at 0.06 or over means NOT MET.

Dear colleague, could you confirm whether Selectivity of N/C(=N\CCC[C@H](N)C(=O)N[C@@H](Cc1ccccc1)C(=O)OCc1ccccc1)N[N+](=O)[O-] falls below 0.06? Thanks.
NOT MET

Next record, please: N/C(=N\CCC[C@H](N)C(=O)N[C@@H](Cc1ccccc1)C(=O)O)N[N+](=O)[O-]
NOT MET

Next record, please: N/C(=N\CCC[C@H](NC(=O)[C@@H](N)Cc1ccccc1)C(=O)OCc1ccccc1)N[N+](=O)[O-] (H-Phe-[Arg(NO2)]-OBn)
NOT MET

Next record, please: COC(=O)[C@@H](Cc1ccccc1)NC(=O)[C@@H](N)CCC/N=C(\N)N[N+](=O)[O-]
NOT MET

Next record, please: COC(=O)[C@@H](Cc1ccccc1)NC(=O)[C@H](N)CCC/N=C(\N)N[N+](=O)[O-]
MET

Next record, please: COC(=O)[C@@H](CCC/N=C(\N)N[N+](=O)[O-])NC(=O)[C@@H](N)Cc1ccccc1
MET

Next record, please: COC(=O)[C@H](CCC/N=C(\N)N[N+](=O)[O-])NC(=O)[C@@H](N)Cc1ccccc1
NOT MET

Next record, please: N/C(=N\CCC[C@@H](NC(=O)[C@H](N)Cc1ccccc1)C(=O)O)N[N+](=O)[O-] (H-[dF]-[dArg(NO2)]-OH)
MET

Next record, please: N/C(=N\CCC[C@H](NC(=O)[C@@H](N)Cc1ccccc1)C(=O)O)N[N+](=O)[O-] (H-Phe-[Arg(NO2)]-OH)
NOT MET
